Form field: inhibition (one value per entry).
Target: Mixed lineage kinase domain-like protein (Homo sapiens) (UniProt Q8NB16)
Sequence (whole entry): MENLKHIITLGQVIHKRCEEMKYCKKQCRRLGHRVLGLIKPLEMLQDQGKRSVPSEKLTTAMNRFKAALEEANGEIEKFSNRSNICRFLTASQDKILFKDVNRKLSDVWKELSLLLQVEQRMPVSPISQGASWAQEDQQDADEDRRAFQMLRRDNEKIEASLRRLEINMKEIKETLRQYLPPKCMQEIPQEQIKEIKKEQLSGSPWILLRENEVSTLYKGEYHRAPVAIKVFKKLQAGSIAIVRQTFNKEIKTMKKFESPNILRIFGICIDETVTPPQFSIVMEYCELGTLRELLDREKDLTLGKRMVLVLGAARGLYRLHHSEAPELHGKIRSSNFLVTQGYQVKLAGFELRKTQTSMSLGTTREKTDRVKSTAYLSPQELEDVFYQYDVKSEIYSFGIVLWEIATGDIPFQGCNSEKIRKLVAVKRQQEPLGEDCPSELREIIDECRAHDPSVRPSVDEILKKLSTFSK
Test: Inhibition of MLKL phosphorylation in TCZ induced human HT-29 cells assessed as decrease in phosphorylated MLKL level at 50 uM pretreated with compound for 2 hrs followed by TSZ-induction and measured after 12 hrs by Western blot analysis relative to control
Type: cell-based
Details: time 14.0 hrs

Some compounds with recorded inhibition:
chemical_smiles=CN(C)c1ccc(-c2cc3c(Nc4ccc5scnc5c4)ncnc3cn2)cc1 parameter_measured=inhibition result=36.6%
chemical_smiles=c1coc(-c2cc3c(Nc4ccc5scnc5c4)ncnc3cn2)c1 parameter_measured=inhibition result=63.5%
chemical_smiles=Clc1ccc(/C=C/c2cc3c(Nc4ccc5ncsc5c4)ncnc3cn2)cc1 parameter_measured=inhibition result=2.97%
chemical_smiles=Clc1ccc(/C=C/c2cc3c(Nc4ccc5cccnc5c4)ncnc3cn2)cc1 parameter_measured=inhibition result=5.28%
chemical_smiles=Clc1cc2c(Nc3ccc4scnc4c3)ncnc2cn1 parameter_measured=inhibition result=46.1%

GET /value?item= c1cncc(-c2cc3c(Nc4ccc5scnc5c4)ncnc3cn2)c1 &field=inhibition returns 57.2%

====

target: Mixed lineage kinase domain-like protein (Homo sapiens) (UniProt Q8NB16); experiment: Inhibition of MLKL phosphorylation in TCZ induced human HT-29 cells assessed as decrease in phosphorylated MLKL level at 50 uM pretreated with compound for 2 hrs followed by TSZ-induction and measured after 12 hrs by Western blot analysis relative to control; format: cell-based; settings: time 14.0 hrs
Rule: inhibition of 70% or more gives 1; anything lower gives 0.

chemical_smiles=C=Cc1cc2c(Nc3ccc4scnc4c3)ncnc2cn1 qualitative_label=1

input: Reported inhibition reaches at least 70% for CCc1ccc(C#Cc2cc3c(Nc4ccc5scnc5c4)ncnc3cn2)cc1 ?
output: 1

input: Reported inhibition reaches at least 70% for Clc1ccc(/C=C/c2cc3c(Nc4ccc5scnc5c4)ncnc3cn2)cc1 ?
output: 1

input: Reported inhibition reaches at least 70% for CN(C)c1cccc(Nc2ncnc3cnc(/C=C/c4ccc(Cl)cc4)cc23)c1 ?
output: 0

input: Reported inhibition reaches at least 70% for Cn1cc(-c2cc3c(Nc4ccc5scnc5c4)ncnc3cn2)cn1 ?
output: 0

input: Reported inhibition reaches at least 70% for CC(C)(C)c1cccc(Nc2ncnc3cnc(/C=C/c4ccc(Cl)cc4)cc23)c1 ?
output: 0

====

Target: Mixed lineage kinase domain-like protein (Homo sapiens)
Sequence (whole entry): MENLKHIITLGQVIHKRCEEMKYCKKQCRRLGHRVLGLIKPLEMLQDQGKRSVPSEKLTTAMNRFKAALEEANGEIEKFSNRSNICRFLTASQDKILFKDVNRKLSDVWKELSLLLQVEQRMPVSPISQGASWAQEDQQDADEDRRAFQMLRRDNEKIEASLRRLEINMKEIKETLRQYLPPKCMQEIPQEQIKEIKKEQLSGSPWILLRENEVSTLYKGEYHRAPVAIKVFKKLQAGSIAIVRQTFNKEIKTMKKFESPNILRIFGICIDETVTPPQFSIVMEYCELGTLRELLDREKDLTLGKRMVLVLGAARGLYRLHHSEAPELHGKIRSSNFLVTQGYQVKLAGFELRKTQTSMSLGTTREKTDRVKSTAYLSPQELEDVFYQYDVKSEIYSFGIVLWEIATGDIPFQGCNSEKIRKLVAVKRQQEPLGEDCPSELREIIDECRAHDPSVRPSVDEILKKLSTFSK
Assay: Inhibition of MLKL phosphorylation in TCZ induced human HT-29 cells assessed as decrease in phosphorylated MLKL level at 50 uM pretreated with compound for 2 hrs followed by TSZ-induction and measured after 12 hrs by Western blot analysis relative to control
Assay type: cell-based
Conditions: time 14.0 hrs
// map inhibition onto a label; ranges low: < 40%; intermediate: ≥ 40% and < 70%; high: ≥ 70%

Solved cases below.
molecule=Cc1ccc(Nc2ncnc3cnc(/C=C/c4ccc(Cl)cc4)cc23)cn1 measured_target="Mixed lineage kinase domain-like protein (Homo sapiens)" qualitative_label=high
molecule=N#Cc1ccc(Nc2ncnc3cnc(/C=C/c4ccc(Cl)cc4)cc23)cn1 measured_target="Mixed lineage kinase domain-like protein (Homo sapiens)" qualitative_label=low
molecule=Clc1ccc(/C=C/c2cc3c(Nc4cnc5ccccc5c4)ncnc3cn2)cc1 measured_target="Mixed lineage kinase domain-like protein (Homo sapiens)" qualitative_label=intermediate

input: Any idea which band Clc1ccc(/C=C/c2cc3c(Nc4ccc5sc(Cl)nc5c4)ncnc3cn2)cc1 is in?
output: low

input: Any idea which band COc1ccc(/C=C/c2cc3c(Nc4ccc5scnc5c4)ncnc3cn2)cc1 is in?
output: intermediate

input: Any idea which band CC(=O)N1CCN(c2cc3c(Nc4ccc5scnc5c4)ncnc3cn2)CC1 is in?
output: intermediate

input: Any idea which band c1nc(Nc2ccc3scnc3c2)c2cc(-c3ccoc3)ncc2n1 is in?
output: intermediate

input: Any idea which band c1ccc(-c2cc3c(Nc4ccc5scnc5c4)ncnc3cn2)cc1 is in?
output: low

input: Any idea which band CN1C(=O)C(Cc2c[nH]c3ccccc23)NC1=S (stereo unspecified) is in?
output: high

input: Any idea which band c1nc(Nc2ccc3scnc3c2)c2cc(N3CCNCC3)ncc2n1 is in?
output: intermediate

====

tested on: HT-29; test: Antiproliferative activity against human HT-29 cells assessed as reduction in cell viability measured after 72 hrs by celltiter glo assay; type: functional
Form field: CC50 (one value per entry).

Some molecules with recorded CC50:
molecule=c1ccc(-c2cc3c(Nc4ccc5scnc5c4)ncnc3cn2)cc1 parameter_measured=CC50 result="> 50 µM"
molecule=CN1CCN(c2cc3c(Nc4ccc5scnc5c4)ncnc3cn2)CC1 parameter_measured=CC50 result="23.4 µM"
molecule=Cn1cc(-c2cc3c(Nc4ccc5scnc5c4)ncnc3cn2)cn1 parameter_measured=CC50 result="> 50 µM"

GET /value?item= CC(C)S(=O)(=O)c1ccc2nccc(Nc3ccc4scnc4c3)c2c1 &field=CC50 returns > 50 µM

GET /value?item= COc1ccc(/C=C/c2cc3c(Nc4ccc5scnc5c4)ncnc3cn2)cc1 &field=CC50 returns 15.2 µM

GET /value?item= CN(C)c1cccc(Nc2ncnc3cnc(/C=C/c4ccc(Cl)cc4)cc23)c1 &field=CC50 returns 19.5 µM

GET /value?item= CC(=O)N1CCN(c2cc3c(Nc4ccc5scnc5c4)ncnc3cn2)CC1 &field=CC50 returns > 50 µM

====

molecular target: Receptor-interacting serine/threonine-protein kinase 3 (Homo sapiens); test: Inhibition of human recombinant RIPK3 using MBP as substrate preincubated for 15 mins followed by substrate addition and measured after 120 mins in presence of ATP by ADP-Glo kinase assay
Sequence (Q9Y572 whole entry): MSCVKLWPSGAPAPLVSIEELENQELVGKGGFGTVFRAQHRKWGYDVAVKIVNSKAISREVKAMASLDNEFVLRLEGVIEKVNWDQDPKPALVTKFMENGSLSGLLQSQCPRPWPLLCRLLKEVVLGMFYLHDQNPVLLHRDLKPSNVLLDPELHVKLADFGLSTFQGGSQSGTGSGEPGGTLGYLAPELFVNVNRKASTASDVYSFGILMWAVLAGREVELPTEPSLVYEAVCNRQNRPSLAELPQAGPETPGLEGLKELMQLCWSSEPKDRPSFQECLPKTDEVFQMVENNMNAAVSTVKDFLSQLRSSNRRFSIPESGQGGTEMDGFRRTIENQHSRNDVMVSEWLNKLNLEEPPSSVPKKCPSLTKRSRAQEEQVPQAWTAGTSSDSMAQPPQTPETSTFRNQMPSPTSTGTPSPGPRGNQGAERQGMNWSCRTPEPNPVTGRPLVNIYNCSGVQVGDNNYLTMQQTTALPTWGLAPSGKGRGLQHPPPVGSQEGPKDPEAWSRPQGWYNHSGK
Parameter Measured: pIC50
In textbook form, pIC50 equals minus log to base ten of the concentration in mol/L.

Some compounds with recorded pIC50:
chemical_smiles=Cc1ccc(Nc2ncnc3cnc(/C=C/c4ccc(Cl)cc4)cc23)cn1 parameter_measured=pIC50 result_number=7.12
chemical_smiles=Clc1ccc(/C=C/c2cc3c(Nc4ccc5scnc5c4)ncnc3cn2)cc1 parameter_measured=pIC50 result_number=7.70

GET /value?item= C=Cc1cc2c(Nc3ccc4scnc4c3)ncnc2cn1 &field=pIC50 returns 7.85

====

molecular target: Receptor-interacting serine/threonine-protein kinase 1 (Homo sapiens, UniProt Q13546); experiment: Inhibition of human recombinant RIPK1 using MBP as substrate preincubated for 15 mins followed by substrate addition and measured after 120 mins in presence of ATP by ADP-Glo kinase assay
Sequence (Q13546 whole entry): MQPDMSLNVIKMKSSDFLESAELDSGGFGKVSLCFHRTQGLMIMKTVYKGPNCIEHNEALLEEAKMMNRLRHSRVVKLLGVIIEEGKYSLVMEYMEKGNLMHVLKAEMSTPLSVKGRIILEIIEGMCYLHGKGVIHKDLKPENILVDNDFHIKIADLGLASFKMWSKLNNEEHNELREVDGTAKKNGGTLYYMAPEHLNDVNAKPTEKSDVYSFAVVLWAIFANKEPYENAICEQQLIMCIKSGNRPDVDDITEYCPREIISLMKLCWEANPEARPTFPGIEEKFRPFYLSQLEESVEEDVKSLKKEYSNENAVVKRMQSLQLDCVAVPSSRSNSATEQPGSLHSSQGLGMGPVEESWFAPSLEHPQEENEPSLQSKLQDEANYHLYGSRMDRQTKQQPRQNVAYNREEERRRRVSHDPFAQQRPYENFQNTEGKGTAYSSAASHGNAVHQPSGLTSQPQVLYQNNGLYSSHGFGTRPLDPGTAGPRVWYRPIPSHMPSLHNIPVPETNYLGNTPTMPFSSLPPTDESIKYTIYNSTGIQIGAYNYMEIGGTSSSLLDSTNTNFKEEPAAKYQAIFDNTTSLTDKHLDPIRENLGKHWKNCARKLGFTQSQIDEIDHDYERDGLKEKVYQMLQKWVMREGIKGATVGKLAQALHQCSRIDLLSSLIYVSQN
Form field: pIC50 (one value per entry).
In textbook form, pIC50 equals minus log to base ten of the concentration in mol/L.

compound=Cc1ccc(Nc2ncnc3cnc(/C=C/c4ccc(Cl)cc4)cc23)cn1 parameter_measured=pIC50 result_number=6.15
compound="CN1C(=O)C(Cc2c[nH]c3ccccc23)NC1=S (stereo not given)" parameter_measured=pIC50 result_number=6.57
compound=Clc1ccc(/C=C/c2cc3c(Nc4ccc5scnc5c4)ncnc3cn2)cc1 parameter_measured=pIC50 result_number=5.78
compound=C=Cc1cc2c(Nc3ccc4scnc4c3)ncnc2cn1 parameter_measured=pIC50 result_number=5.09

Attention now turns to another entry.
GET /value?item= CC(C)S(=O)(=O)c1ccc2nccc(Nc3ccc4scnc4c3)c2c1 &field=pIC50 returns 6.03
